- Test system: SF-268 CNS
- protocol text: NCI tumour cell line growth inhibition, 48 h
endpoint label: TGI

These recorded examples may help you get a feel for the data.
molecule	observed
CCOC(=O)c1c(NC(=O)c2ccccc2)c(C#N)c2n1CCCCC2	> 100 µM
CN1CCN(c2c(F)cc(NC3=C(Cl)C(=O)c4ncccc4C3=O)cc2F)CC1	28.3 µM
O=C(Nn1c(-c2ccccc2)nc2ccccc2c1=O)c1ccc(Cl)cc1	> 100 µM

QUERY: Specify the recorded TGI for O=C1c2cc(O)c(O)cc2O[C@H](c2ccc(O)c(O)c2)[C@H]1O , system: SF-268 CNS.
RESULT: > 100 µM

QUERY: Provide TGI, tested on SF-268 CNS, for COc1ccc2nc(NC(=O)C(=O)CC(=O)c3ccc([N+](=O)[O-])cc3)sc2c1 .
RESULT: > 100 µM

QUERY: Specify the recorded TGI for COc1ccccc1CNCCN1C(=O)c2ccc3c4c(ccc(c24)C1=O)C(=O)N(CCNCc1ccccc1OC)C3=O , system: SF-268 CNS.
RESULT: 1.12 µM

QUERY: Give TGI for this entry on SF-268 CNS: CC(=O)OCC(=O)[C@@]1(O)CC[C@H]2[C@@H]3C[C@H](C)C4=CC(=O)C=C[C@]4(C)[C@@]3(F)[C@@H](O)C[C@@]21C
RESULT: > 100 µM

QUERY: Enter TGI (test system SF-268 CNS) for CC(=O)OC1COC(N2CCc3cc([N+](=O)[O-])ccc32)C(OC(C)=O)C1OC(C)=O (stereo not drawn)
RESULT: > 100 µM

====

- System: CAKI-1 renal
- protocol text: NCI tumour cell line growth inhibition, 48 h
endpoint label: GI50

Answered examples (5):
compound	observed
O=C(c1cccs1)c1c(C(F)(F)F)n([O-])c2cc(Cl)c(Cl)cc2[n+]1=O	1.53 µM
OCC1CC[N-]CC1.OCC1CC[N-]CC1.[Cl][Pt+2]([Cl])([Cl])[Cl]	20.3 µM
COc1ccc(Nc2cnc3cc(N)cc(N)c3n2)cc1	23 µM
COCCN(Cc1ccc(F)cc1)c1ccc(CO)c(Cl)c1	21.2 µM
C#Cc1ccc(-n2c(/C=C/c3ccc(O)cc3)nc3ncccc3c2=O)cc1	4.15 µM

QUERY: Give GI50 for the following compound: CC(=O)Oc1ccc(C2=Cc3ccc(OC(C)=O)cc3OC2C)cc1 (stereo not given)
RESULT: 2.31 µM

QUERY: Give recorded GI50. CC(=O)[CH-]C(=O)c1ccccc1.[C-]#[O+].[C-]#[O+].[Ir]
RESULT: > 100 µM

====

- System: UO-31 renal
- protocol text: NCI tumour cell line growth inhibition, 48 h
Where a SMILES comes first, the peptide text is derived from it. Bridges are numbered along the chain shown (N, C = ends). [ ]: non-standard residue; d: D form. aThr = C[C@H](O)[C@H](N)C(=O)O
Decision: TGI compared against 30 µM; not below it gives met, below it gives not met.

Examples from the recorded data:
molecule	qualitative label
COc1ccc(-c2nc3ccc(Cc4ccc5nc(-c6ccc(OC)cc6)[nH]c5c4)cc3[nH]2)cc1	not met
O=C(c1ccc(Cl)cc1)C1OC12C(=O)Nc1c(Cl)cc(Cl)cc12 (stereo not given)	met
O=[N+]([O-])c1ccc(/C=N/Nc2nc3ccccc3[nH]2)o1	met

QUERY: Evaluate O=c1c(-c2ccccc2)nnc2n(Cc3ccccc3)c3ccccc3n12 : TGI at minimum 30 µM?
RESULT: met

QUERY: Item Oc1ccc(C(=C(Br)c2ccccc2)c2ccc(O)cc2)cc1 with TGI of 30 µM or above?
RESULT: not met

QUERY: Kindly determine if TGI recorded for O=C1CC(c2ccc(Cl)cc2)=Nc2ccccc2N1 is above or exactly 30 µM.
RESULT: met

QUERY: Form field: TGI at least 30 µM? Entry: CCOC(=O)/C(=C\c1cccc(C)c1)C(C)=O
RESULT: met

QUERY: Does TGI meet or surpass 30 µM for CC1NOC(=O)C1N=Nc1ccc(Cl)cc1Cl (stereo not given) ?
RESULT: met

QUERY: Decide: TGI of CC(C)C[C@@H]1NC(=O)[C@@H]2CCCN2C(=O)[C@@H]2CCCN2C(=O)[C@H](CC(C)C)NC(=O)[C@H](CO)NC(=O)[C@H](CCCCN)NC(=O)[C@H]([C@H](C)O)NC(=O)[C@@H]2CSSC[C@@H](NC1=O)C(=O)N[C@@H](Cc1ccccc1)C(=O)N1CCC[C@H]1C(=O)N[C@@H](CC(=O)O)C(=O)NCC(=O)N[C@@H](CCCN=C(N)N)C(=O)N2 (cyclo(C[aThr]KSLPPL[dC]FPDGR); disulfide 1-9) >= 30 µM?
RESULT: met

====

Reported TGI values follow for various compounds
- Test system: PC-3 prostate
- protocol text: NCI tumour cell line growth inhibition, 48 h

Previously resolved entries follow.
compound	target desc	TGI
CCN1CCC(O)(c2ccc([N+](=O)[O-])cc2)C(C(=O)c2ccc([N+](=O)[O-])cc2)C1 (stereo unspecified)	PC-3 prostate	> 100 µM
CC(=O)NC1C(OCC(=O)NCCNc2ccc([N+](=O)[O-])c3[nH]c4ccccc4c(=O)c23)C(O)C(CO)OC1(C)OCc1ccccc1 (stereo unspecified)	PC-3 prostate	> 100 µM
CCCCCCCCCCCC[C@@H](O)[C@H]1CC[C@H]([C@H](O)CC[C@H](O)[C@@H]2CC[C@@H](CCCCCCCC3=C[C@H](C)OC3=O)O2)O1	PC-3 prostate	> 50 µM

QUERY: Recall the reported TGI of CC(=O)c1ccc(Nc2c3c(nc4ccccc24)CCCC3)cc1 when tested on PC-3 prostate.
RESULT: > 100 µM

QUERY: Return reported TGI for target or system PC-3 prostate, item Cn1c2ccccc2c(=O)c2c(O)cc3c(c21)C1OCC(C)(O)C1O3 (stereo unspecified) .
RESULT: > 100 µM

QUERY: State the measured TGI (PC-3 prostate) of O=C(O)CN(CCN(CC(=O)O)CC(=O)O)CC(=O)O.[Mn+2]
RESULT: > 100 µM

====

- Test system: SNB-75 CNS
- protocol text: NCI tumour cell line growth inhibition, 48 h
Catalogue of molecules with associated TGI

These solved cases illustrate the format of a correct answer.
molecule	TGI
CC(SC(=S)N1CCOCC1)C(=O)Nc1nnc(-c2ccc(Cl)cc2)o1 (centres undefined)	> 100 µM
C1CCC(N=C2N(C3CCCCC3)C(=NC3CCCCC3)N2C2CCCCC2)CC1	> 100 µM
Cc1ccc(N=N/C(=N/NC(=O)c2ccccc2)c2ccc(N(CCC#N)CCC#N)cc2C)cc1	> 100 µM

QUERY: Report TGI on SNB-75 CNS for this entry: CCN(CC)CCNc1ccc2ncn3c4ccc(O)cc4c(=O)c1c23
RESULT: 11.6 µM

====

- Tested on: A549 NSCLC
- protocol text: NCI tumour cell line growth inhibition, 48 h
endpoint label: TGI

compound	TGI
S=C1SCN(Cc2ccccc2)CN1Cc1ccco1	> 100 µM
O=C1c2cc3c(cc2-c2c1c1ccc(Cl)cc1c(=O)n2C[C@H](O)CO)OCO3	0.72 µM
COc1ccc2nc3c(c(N)c2c1)C1CCC3C1(C)C (configuration not stated)	> 100 µM
CCc1cccc(CC)c1NC(=O)/C(Cl)=C(/Cl)C(=O)O	> 89.6 µM
ClCCOCCn1cnc2c(Cl)nc(Cl)nc21	61.9 µM

QUERY: Find the measured TGI of O=C(O)CCCc1ccc2c(c1)CC1(C2)Cc2cc3c(cc2C1)CCCC3 and report it.
RESULT: 67 µM

QUERY: Output TGI of O=[N+]([O-])c1ccc(/C=N/Nc2nc3ccccc3[nH]2)o1
RESULT: 30.4 µM

QUERY: Fill in TGI for record CCOC(=O)c1ccc(N=Nc2ccc(N(CCC#N)CCC#N)cc2C)cc1
RESULT: > 100 µM

QUERY: Give the reported TGI for this compound. Cc1nc2sc3cccc(Cl)c3n2c(=O)c1N=Nc1ccc(Cl)cc1
RESULT: > 100 µM

QUERY: State its TGI: Cc1noc(NC(=O)Nc2ccccc2F)c1C#N
RESULT: > 52.1 µM

====

- System: SF-539 CNS
- protocol text: NCI tumour cell line growth inhibition, 48 h
endpoint label: TGI

compound	observed
COC(CN(C)C(=S)Nc1cccc2ccccc12)OC	> 10 µM
COc1ccc2ccccc2c1C1=NC(C)(C)CO1	> 100 µM
CC(C)(C)OC(=O)N(CCCCNC(=O)C(F)(F)F)CCCNC(=O)C(F)(F)F	> 100 µM
C(=Nc1nc(SCc2ccccc2)nc2[nH]ncc12)c1cccs1	> 100 µM
O=c1[nH]c(N/N=C\C(O)C(O)C(O)C(O)CO)nc2ccccc12 (stereo unspecified)	> 100 µM

QUERY: Retrieve TGI measured for O=C(CSCC(=O)N/N=C/c1cccc(O)c1)N/N=C/c1cccc(O)c1 and print it.
RESULT: > 100 µM
